- molecule: "CC(=O)Oc1nc2c(N)ncnc2n1Cc1ccccc1"
  melting point: "189 to 191 °C"
- molecule: "CCCCn1c(O)nc2c(N)ncnc21 [Example 3, 9-Butyl-8-Hydroxyadenine]"
  melting point: "222 to 224 °C"
- molecule: "CCCCCCCC(=O)Oc1nc2c(N)ncnc2n1Cc1ccccc1"
  melting point: "248 to 250 °C"
- molecule: "Nc1ncnc2c1nc(O)n2Cc1ccc(F)cc1 [Example 4, 9-(4-Fluorobenzyl)-8-Hydroxyadenine]"
  melting point: "270 to 272 °C"
- molecule: "CC(C)(C)OC(=O)Oc1nc2c(N)ncnc2n1Cc1ccccc1"
  melting point: "287 to 289 °C"
- molecule: "Nc1ncnc2c1nc(O)n2Cc1ccccc1 [Example 1, 9-Benzyl-8-Hydroxyadenine]"
  melting point: "278 to 280 °C"
- molecule: "Nc1ncnc2c1nc(OC(=O)c1ccccc1)n2Cc1ccccc1"
  melting point: "227 to 229 °C"

----------
Tested on: interleukin-4 (IL-4)
Test: IL-4 production from OVA-sensitized mouse spleen cells induced by antigen stimulation (ELISA)
Format: cell-based
Settings: test compound 1 μM; OVA-stimulated sensitized spleen cells, 3 days culture supernatant
Experimental: 1) Preparation of Sensitized Mouse Spleen Cells Seven week-old male BALB/c mice were immunized with 4 mg of aluminium hydroxide gel (100 μl) adsorbing 10 μg of ovalbumin (OVA) by intraperitoneal administration. […] To the spleen cell suspension (5×10^6 cells/200 μl/well), 1/1000 volume of dimethyl sulfoxide solution dissolving OVA (0.5 mg/ml) and a test compound at a specific concentration was added. […] After 3 days, cytokines in the culture supernatant were determined by ELISA. […]

- compound: "Nc1nc(C2CCCCC2)nc2c1nc(O)n2Cc1ccccc1 [Example 21, 9-Benzyl-2-Cyclohexyl-8-Hydroxyadenine]"
  measured_target: "interleukin-4 (IL-4)"
  IL-4: "11 pg/mL"
- compound: "CCCCCc1nc(N)c2nc(O)n(Cc3ccccc3)c2n1 [Example 20, 9-Benzyl-8-Hydroxy-2-Pentyladenine]"
  measured_target: "interleukin-4 (IL-4)"
  IL-4: "<7.8 pg/mL"
- compound: "Nc1nc(Cc2ccccc2)nc2c1nc(O)n2Cc1ccccc1 [Example 24, 2,9-Dibenzyl-8-Hydroxyadenine]"
  measured_target: "interleukin-4 (IL-4)"
  IL-4: "<7.8 pg/mL"
- compound: "CC(C)c1nc(N)c2nc(O)n(Cc3ccccc3)c2n1 [Example 45, 9-Benzyl-8-Hydroxy-2-Isopropyladenine]"
  measured_target: "interleukin-4 (IL-4)"
  IL-4: "<7.8 pg/mL"
- compound: "Cc1nc(N)c2nc(O)n(Cc3cccc(Cl)c3)c2n1"
  measured_target: "interleukin-4 (IL-4)"
  IL-4: "<7.8 pg/mL"
- compound: "Cc1nc(N)c2nc(S)n(Cc3ccccc3)c2n1"
  measured_target: "interleukin-4 (IL-4)"
  IL-4: "29 pg/mL"

----------
IFN-γ for assorted compounds
Tested on: interferon-γ (IFN-γ)
Test: IFN-γ production from OVA-sensitized mouse spleen cells induced by antigen stimulation (ELISA)
Assay type: cell-based
Conditions: test compound 1 μM; OVA-stimulated sensitized spleen cells, 3 days culture supernatant

- compound: "CCCCCc1nc(N)c2nc(O)n(Cc3ccccc3)c2n1 [Example 20, 9-Benzyl-8-Hydroxy-2-Pentyladenine]"
  unit_of_measurement: "ng/mL"
  IFN-γ: 193
- compound: "Nc1nc(C2CCCCC2)nc2c1nc(O)n2Cc1ccccc1 [Example 21, 9-Benzyl-2-Cyclohexyl-8-Hydroxyadenine]"
  unit_of_measurement: "ng/mL"
  IFN-γ: 158
- compound: "Nc1nc(Cc2ccccc2)nc2c1nc(O)n2Cc1ccccc1 [Example 24, 2,9-Dibenzyl-8-Hydroxyadenine]"
  unit_of_measurement: "ng/mL"
  IFN-γ: 199
- compound: "Cc1nc(N)c2nc(S)n(Cc3ccccc3)c2n1"
  unit_of_measurement: "ng/mL"
  IFN-γ: 50
- compound: "CC(C)c1nc(N)c2nc(O)n(Cc3ccccc3)c2n1 [Example 45, 9-Benzyl-8-Hydroxy-2-Isopropyladenine]"
  unit_of_measurement: "ng/mL"
  IFN-γ: 161
- compound: "Cc1nc(N)c2nc(O)n(Cc3cccc(Cl)c3)c2n1"
  unit_of_measurement: "ng/mL"
  IFN-γ: 63
